# System: Caenorhabditis elegans L1 (N2)
# measurement_notes: survival and reproduction score of C. elegans L1 (0: 0-10 living worms, 1: 11-20, 2: 21-50, 3: >50, 4: overgrown) (score 0-4); higher = more worms, less nematicidal, active = 1 or less; extreme values may be limits of the assay
# test_conditions: 60 µM; 6 days; temperature: 20 °C
experimental_endpoint: survival and reproduction score

- C=CCOc1cccc(-c2nc(-c3cccnc3)no2)c1: 0
- c1ccc(COc2cccc(-c3nc(-c4ccncc4)no3)c2)cc1: 4
- Cc1ccc(-c2nc(-c3ccncc3)no2)c(Cl)c1: 2
- COc1ccc(-c2nnc(SCc3ccc(C#N)cc3)o2)cc1: 4
- COc1cccc(NC(=O)CSc2nnc(-c3ccc(C)cc3)o2)c1: 4
- CCn1c(SCc2ccc(OC)cc2)nnc1-c1ccco1: 4
- COc1ccc(-c2noc(-c3ccc(C)cc3Cl)n2)cc1: 4
- COc1ccc(-c2nnc(SCC(=O)Nc3ccc(C(C)C)cc3)o2)cc1: 4
- O=C(CSc1nnc(-c2ccccc2)o1)Nc1cccc(Cl)c1: 4
- Cc1ccccc1-c1noc(-c2cccc(Br)c2)n1: 4
- Cc1ccc(-c2nc(-c3cccnc3)no2)cc1Cl: 0
- COc1cccc(-c2noc(-c3cccc(F)c3)n2)c1: 4
- CN(C)c1ccc(-c2nnc(SCc3ccccc3)o2)cc1: 4
- FC(F)(F)c1cccc(-c2noc(-c3cccs3)n2)c1: 0
- O=C(CSc1nnc(-c2ccc(Cl)cc2)o1)Nc1nccs1: 4
- CCOc1ccc(NC(=O)CSc2nnc(-c3ccccc3Cl)o2)cc1: 4
- CC(C)CCC(=O)Nc1ccccc1-c1nc(-c2ccccn2)no1: 2
- COc1ccc(NC(=O)CSc2nnc(-c3ccc(Br)cc3)o2)cc1: 4
- COc1ccc(-c2noc(-c3ccccc3Cl)n2)cc1: 4
- COc1nc(C)ccc1-c1noc(-c2ccc(Cl)cc2)n1: 4
- Clc1ccc(OCc2nc(-c3ccncc3)no2)cc1: 4
- Clc1ccc(-c2nc(-c3ccncc3)no2)cc1: 0.5
- Cc1cccc(OCc2nc(-c3ccc(Br)cc3)no2)c1: 4
- COc1ccc(NC(=O)CSc2nnc(-c3ccccc3C)o2)cc1: 4
- Cc1ccc(-c2nc(-c3ccccc3Br)no2)cc1: 4
- Cc1cc(Cl)ccc1OCc1nc(-c2cccnc2)no1: 4
